All values here come from paper PMC12272249.

Target: legumain (Homo sapiens, UniProt Q99538)
Construct: purchased R&D Systems (Bio-Techne) 2199-CY
Sequence (Q99538 18-433): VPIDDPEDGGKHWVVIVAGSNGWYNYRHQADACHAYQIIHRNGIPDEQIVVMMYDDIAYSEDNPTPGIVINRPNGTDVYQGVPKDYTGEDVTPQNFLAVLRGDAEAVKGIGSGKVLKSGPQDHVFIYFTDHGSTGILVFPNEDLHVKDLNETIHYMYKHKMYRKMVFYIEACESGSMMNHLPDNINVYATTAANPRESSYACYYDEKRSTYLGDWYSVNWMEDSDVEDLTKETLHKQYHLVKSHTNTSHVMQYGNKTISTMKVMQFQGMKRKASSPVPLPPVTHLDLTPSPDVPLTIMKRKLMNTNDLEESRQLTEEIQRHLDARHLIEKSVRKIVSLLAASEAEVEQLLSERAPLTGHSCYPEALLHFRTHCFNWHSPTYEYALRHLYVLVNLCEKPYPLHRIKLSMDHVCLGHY
Assay name: FRET substrate stability against legumain
Type: in vitro ADME
Conditions used: 30 μM Abz/Dnp peptide, 10 nM legumain, appropriate buffer, 37°C, 100 min (6,000 s), fluorescence, three replicates

Substance	Target	substrate cleavage by legumain
LSGRSDNH [Mtp-control, reference compound]	legumain (Homo sapiens, UniProt Q99538)	No detectable cleavage
ENLYFQG [TEV-control, TEV protease substrate, non-cleavable control for matriptase, reference compound]	legumain (Homo sapiens, UniProt Q99538)	No detectable cleavage
